target: D1 (h) (Homo sapiens); assay: D1 (h) (antagonist radioligand); settings: read-out: Inhibition D1 (h) (antagonist radioligand)
Sequence (P21728 whole entry): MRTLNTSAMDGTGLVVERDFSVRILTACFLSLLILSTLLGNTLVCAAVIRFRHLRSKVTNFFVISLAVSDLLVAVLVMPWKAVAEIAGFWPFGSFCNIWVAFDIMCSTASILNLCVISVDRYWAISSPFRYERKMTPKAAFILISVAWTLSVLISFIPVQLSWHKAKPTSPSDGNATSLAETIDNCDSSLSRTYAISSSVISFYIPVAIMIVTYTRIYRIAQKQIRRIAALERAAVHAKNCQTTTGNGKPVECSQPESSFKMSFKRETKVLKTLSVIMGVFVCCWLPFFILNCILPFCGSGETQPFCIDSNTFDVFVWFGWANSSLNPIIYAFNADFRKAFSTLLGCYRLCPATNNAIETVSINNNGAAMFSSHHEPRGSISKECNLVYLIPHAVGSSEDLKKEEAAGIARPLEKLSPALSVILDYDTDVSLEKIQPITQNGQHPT
propertyName: inhibition at 10 µM

Examples with their reported inhibition at 10 µM follow.
[[record]]
structuresmiles = "O=C(OC(C(F)(F)F)C(F)(F)F)N1CC2(CC(CC3=C4C=CC(c5ccc[nH]5)=[N+]4[B-](F)(F)n4cccc43)C2)C1"
measuredresult = "6.1%"

[[record]]
structuresmiles = "O=C(OC(C(F)(F)F)C(F)(F)F)N1CC2(CC(CC3=C4C=CC=[N+]4[B-](F)(F)n4cccc43)C2)C1"
measuredresult = "-1.2%"

[[record]]
structuresmiles = "O=C(O[C@H](CO)C(F)(F)F)N1CC2(CC(CC3=C4C=CC=[N+]4[B-](F)(F)n4cccc43)C2)C1"
measuredresult = "8.1%"

[[record]]
structuresmiles = "O=C1CO[C@H]2CCN(C(=O)N3CC4(CC(CC5=C6C=CC(c7ccc[nH]7)=[N+]6[B-](F)(F)n6cccc65)C4)C3)C[C@H]2N1"
measuredresult = "7.5%"


# return recorded inhibition at 10 µM for input O=C(N1CC2(CC(CC3=C4C=CC=[N+]4[B-](F)(F)n4cccc43)C2)C1)N1CC2(CC(n3cnc(C4CC4)n3)C2)C1
7.3%
